# assayedSystem: D-amino-acid oxidase (Homo sapiens, UniProt P14920)
# Sequence (P14920 whole entry): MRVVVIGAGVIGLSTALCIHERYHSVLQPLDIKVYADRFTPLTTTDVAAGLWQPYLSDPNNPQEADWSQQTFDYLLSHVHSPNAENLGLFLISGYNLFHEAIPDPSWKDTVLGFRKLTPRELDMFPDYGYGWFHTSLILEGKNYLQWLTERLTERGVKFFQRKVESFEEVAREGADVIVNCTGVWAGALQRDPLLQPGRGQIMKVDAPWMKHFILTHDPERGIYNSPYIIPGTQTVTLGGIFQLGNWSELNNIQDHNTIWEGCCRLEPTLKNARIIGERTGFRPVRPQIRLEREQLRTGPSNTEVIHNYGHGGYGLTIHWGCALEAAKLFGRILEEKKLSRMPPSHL
# testDescription: Binding affinity to human recombinant DAAO at 444 nm spectral modification by spectrophotometric analysis in presence of FAD
resultType: Kd

Query :: What measured Kd goes with Oc1noc2cc(Cl)c(Cl)cc12 ?
Result :: 4.2 µM

* * *

Listed here are compounds together with their documented pKd.
# assayedSystem: UniProtKB P14920
# testDescription: Binding affinity to human recombinant DAAO at 492 nm spectral modification by spectrophotometric analysis in presence of FAD
Keep in mind that pKd stands for -log10 of concentration in molar terms.

O=C(O)c1ccccc1 5.66

Kindly consider the entry below.
Query :: For the compound O=C(O)c1cc2occ(CCc3ccccc3)c2[nH]1 , what pKd is on record?
Result :: 5.43

* * *

# assayedSystem: D-amino-acid oxidase (Homo sapiens, UniProt P14920)
# testDescription: Binding affinity to human recombinant DAAO by stopped flow spectrophotometric analysis in presence of FAD
# Lookup of reported Kd keyed by entry
Your answer should be a plain number; it is taken to be in µM.

Use these answered entries as a reference point.
molecule	Kd [µM]
Oc1noc2cc(Cl)c(Cl)cc12	1.9
O=C(O)c1cc2sccc2[nH]1	7

Query :: Returns the measured Kd for the input molecule. Input: O=C(O)c1cc2occ(CCc3ccccc3)c2[nH]1
Result :: 6

Query :: Same question, O=c1oc2ccccc2cc1O [3-HYDROXYCOUMARIN] this time
Result :: 6.3

Query :: Cool, now O=C(O)c1ccccc1
Result :: 2.3

* * *

# assayedSystem: D-amino-acid oxidase (Homo sapiens, UniProt P14920)
# testDescription: Binding affinity to human recombinant DAAO at 520 nm spectral modification by spectrophotometric analysis in presence of FAD
resultType: Kd (nM)
Express the result in nM but write the number alone.

Query :: Requested field: Kd. Item: O=C(O)c1cc2sccc2[nH]1
Result :: 2500

* * *

# assayedSystem: D-amino-acid oxidase (Homo sapiens, UniProt P14920)
# testDescription: Competitive inhibition of human recombinant DAAO after 1 hr by coupled enzyme assay in presence of D-serine
IC50: recorded values
Please reply with the bare figure in µM and do not write the unit itself.

Query :: Param item = O=C(O)c1ccccc1 [BENZOIC ACID] ; retrieve measured IC50.
Result :: 2.09

Query :: Another compound: O=C(O)c1cc2sccc2[nH]1
Result :: 0.00537

Query :: Same thing, different compound: O=c1oc2ccccc2cc1O [3-HYDROXYCOUMARIN]
Result :: 0.0347

Query :: Ok, now Oc1noc2cc(Cl)c(Cl)cc12
Result :: 0.00309

Query :: Also need O=C(O)c1cc2occ(CCc3ccccc3)c2[nH]1 , thanks.
Result :: 0.219

* * *

# testDescription: Drug uptake in C57BL/6 mouse cerebellum at 30 mg/kg, ip after 6 hrs by LC/MS/MS analysis
# Assay type: ADME, organism-based
# Set-up: dose 30 mg/kg, route intraperitoneal
# conditionDetails: read-out: Drug uptake
resultType: concentration at 6 h

Query :: Quick check: concentration at 6 h of O=C(O)c1cc(CCc2ccc(Cl)cc2)c[nH]1 ?
Result :: > 1000 nM

* * *

// values below are reported pKi
# assayedSystem: UniProt:P14920
# testDescription: Competitive inhibition of human recombinant DAAO by Michaelis-Menten plot analysis in presence of D-serine
Remember the convention: pKi equals -log10 of concentration in molar.

Sample records with pKi:
molecule	pKi
Oc1noc2cc(Cl)c(Cl)cc12	8.77
O=c1oc2ccccc2cc1O [3-HYDROXYCOUMARIN]	7.89
O=C(O)c1ccccc1	5.70

Query :: Endpoint output: pKi of O=C(O)c1cc2occ(CCc3ccccc3)c2[nH]1 . Value?
Result :: 6.72

Query :: Query O=C(O)c1cc2sccc2[nH]1 next
Result :: 8.46

Origin of values: ChEMBL document CHEMBL2375208
